- experimental_target: CYP3A4 (Homo sapiens, UniProt P08684)
- Construct: purchased BioVision Inc. K702-200
- Sequence (P08684 whole entry): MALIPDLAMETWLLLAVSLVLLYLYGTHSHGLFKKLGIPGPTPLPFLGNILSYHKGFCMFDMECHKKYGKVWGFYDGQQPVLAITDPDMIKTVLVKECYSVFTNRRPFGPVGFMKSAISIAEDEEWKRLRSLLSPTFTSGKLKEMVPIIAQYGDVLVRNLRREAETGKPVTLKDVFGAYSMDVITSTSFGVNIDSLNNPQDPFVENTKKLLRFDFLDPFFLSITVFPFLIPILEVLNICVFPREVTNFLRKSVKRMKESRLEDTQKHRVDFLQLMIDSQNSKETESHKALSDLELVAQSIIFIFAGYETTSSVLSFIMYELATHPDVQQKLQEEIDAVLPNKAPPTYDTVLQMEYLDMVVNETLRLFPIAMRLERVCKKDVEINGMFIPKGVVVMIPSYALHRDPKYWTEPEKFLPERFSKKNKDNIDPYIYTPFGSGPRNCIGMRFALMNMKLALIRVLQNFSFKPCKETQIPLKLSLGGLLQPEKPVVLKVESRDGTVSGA
- run_description: CYP3A4 inhibitory in vitro assay (fluorometric inhibitor screening kit)
- Type: biochemical
- stated_conditions: human, probe kit CYP3A4 substrate metabolised to resorufin (not named); Concentration 100 (unit inferred); read-out: % Relative Inhibition
property_measured: inhibition at 100 µM (%)

compound	property_measured	u	measured_result
O=C1O[C@H]2[C@@H]3OC(=O)c4cc(O)c(O)c(O)c4-c4c(O)c(O)c5oc(=O)c6c(c(O)c(O)c7oc(=O)c4c5c76)-c4c(cc(O)c(O)c4O)C(=O)OC[C@H]3OC(O)[C@@H]2OC(=O)c2cc(O)c(O)c(O)c2-c2c1cc(O)c(O)c2O (mixture of isomers) [Punicalagin]	inhibition at 100 µM	%	76.2

###

- experimental_target: CYP3A4 (Homo sapiens)
- Construct: purchased BioVision Inc. K702-200
- run_description: CYP3A4 inhibitory in vitro assay (fluorometric inhibitor screening kit)
- Format: biochemical
- stated_conditions: human, probe kit CYP3A4 substrate metabolised to resorufin (not named); Concentration 50 (unit inferred); read-out: % Relative Inhibition
property_measured: inhibition at 50 µM (%)

compound	u	measured_result
O=C1O[C@H]2[C@@H]3OC(=O)c4cc(O)c(O)c(O)c4-c4c(O)c(O)c5oc(=O)c6c(c(O)c(O)c7oc(=O)c4c5c76)-c4c(cc(O)c(O)c4O)C(=O)OC[C@H]3OC(O)[C@@H]2OC(=O)c2cc(O)c(O)c(O)c2-c2c1cc(O)c(O)c2O (mixture of isomers) [Punicalagin]	%	89.1

###

- experimental_target: CYP3A4 (Homo sapiens, UniProt P08684)
- Construct: purchased BioVision Inc. K702-200
- run_description: CYP3A4 inhibitory in vitro assay (fluorometric inhibitor screening kit)
- Assay type: biochemical
- stated_conditions: human, probe kit CYP3A4 substrate metabolised to resorufin (not named); Concentration 200 (unit inferred); read-out: % Relative Inhibition

compound	u	inhibition at 200 µM
CC(=O)N1CCN(c2ccc(OCC3COC(Cn4ccnc4)(c4ccc(Cl)cc4Cl)O3)cc2)CC1 (centres unmarked)	%	55
O=C1O[C@H]2[C@@H]3OC(=O)c4cc(O)c(O)c(O)c4-c4c(O)c(O)c5oc(=O)c6c(c(O)c(O)c7oc(=O)c4c5c76)-c4c(cc(O)c(O)c4O)C(=O)OC[C@H]3OC(O)[C@@H]2OC(=O)c2cc(O)c(O)c(O)c2-c2c1cc(O)c(O)c2O (mixture of isomers)	%	52.5
